Molecular target: VEGF (R&D systems, Minneapolis, Minn.) (UniProt P15692-4 27-191, limits assumed)
Sequence (P15692 other isoform, or with tags, fused parts or gaps limits assumed): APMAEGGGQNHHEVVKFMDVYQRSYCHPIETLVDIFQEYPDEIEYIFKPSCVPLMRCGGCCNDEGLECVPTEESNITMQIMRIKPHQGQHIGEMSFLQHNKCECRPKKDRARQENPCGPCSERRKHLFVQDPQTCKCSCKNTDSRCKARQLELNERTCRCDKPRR
Experiment: BIAcore SPR, WT/mutant
Kindly supply the reported Δkoff values for the records listed here.
Write the numeric value and append its unit.

Q: Using the record for 95 (antibody, human IgG1, V domains shown) VH: EVQLVESGGGLVQPGGSLRLSCAASGYTFTNYGMNWVRQAPGKGLEWVGWINTYTGEPTYAADFKRRFTFSLDTSKSTAYLQMNSLRAEDTAVYYCAKYPDYYGSSHWYFDVWGQGTLVTVSS VL: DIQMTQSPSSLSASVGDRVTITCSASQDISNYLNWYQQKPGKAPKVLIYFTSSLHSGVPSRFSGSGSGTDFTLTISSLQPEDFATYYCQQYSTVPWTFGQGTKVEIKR , report its Δkoff.
Ans: 0.9 fold

Q: Field entry: 91 (antibody, human IgG1, V domains shown) VH: EVQLVESGGGLVQPGGSLRLSCAASGYTFTFYGMNWVRQAPGKGLEWVGWINTYTGEPTYAADFKRRFTFSLDTSKSTAYLQMNSLRAEDTAVYYCAKYPHYYGSSHWYFDVWGQGTLVTVSS VL: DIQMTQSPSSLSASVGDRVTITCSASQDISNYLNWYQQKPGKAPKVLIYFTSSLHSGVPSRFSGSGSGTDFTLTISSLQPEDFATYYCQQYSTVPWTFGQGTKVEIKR
Ans: 2.9 fold

Q: Next binder up: 86 (seventh row of Table 7) (antibody, human IgG1, V domains shown, defined here by its substitutions; copies: 2 + 2) VH: EVQLVESGGGLVQPGGSLRLSCAASGYTFTFYGMNWVRQAPGKGLEWVGWINTYTGEPTYAADFKRRFTFSLDTSKSTAYLQMNSLRAEDTAVYYCAKYPHYDGGSHWYFDVWGQGTLVTVSS VL: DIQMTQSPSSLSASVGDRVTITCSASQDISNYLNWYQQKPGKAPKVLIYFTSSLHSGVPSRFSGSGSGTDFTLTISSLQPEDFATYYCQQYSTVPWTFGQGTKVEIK
Ans: 1.3 fold

Q: Now the binder 89 (antibody, human IgG1, V domains shown) VH: EVQLVESGGGLVQPGGSLRLSCAASGYTFTFYGMNWVRQAPGKGLEWVGWINTYTGEPTYAADFKRRFTFSLDTSKSTAYLQMNSLRAEDTAVYYCAKYPPYDGSSHWYFDVWGQGTLVTVSS VL: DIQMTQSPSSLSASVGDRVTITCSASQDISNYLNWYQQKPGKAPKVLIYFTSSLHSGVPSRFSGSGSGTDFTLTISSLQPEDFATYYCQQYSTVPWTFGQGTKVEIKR
Ans: 1.4 fold

Q: Try 90 (antibody, human IgG1, V domains shown) VH: EVQLVESGGGLVQPGGSLRLSCAASGYTFTFYGMNWVRQAPGKGLEWVGWINTYTGEPTYAADFKRRFTFSLDTSKSTAYLQMNSLRAEDTAVYYCAKYPDYYGSSHWYFDVWGQGTLVTVSS VL: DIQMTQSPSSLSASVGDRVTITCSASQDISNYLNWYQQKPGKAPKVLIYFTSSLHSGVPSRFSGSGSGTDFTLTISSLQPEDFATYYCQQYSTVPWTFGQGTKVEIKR next.
Ans: 1.8 fold
